Hello, the source for this data is the supplement of paper PMC9694430, in case you need it.

As shown below, each of these compounds has a reported thermal shift delta Tm value.
System: LOC_OS05G28520-cb001;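 also: purified Escherichia coli-expressed rice kinase domain construct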
test protocol: thermal shift delta Tm vs DMSO control; higher = stronger stabilization (binding)
applied conditions: 12.5 µM; protein concentration 2 µM
Field: value (include unit after the number)

[[record]]
compound = "CCN(CC)CCCCNc1ncc2cc(-c3cc(OC)cc(OC)c3)c(NC(=O)NC(C)(C)C)nc2n1"
result = "0.72 °C"

[[record]]
compound = "CN1CCN(c2nc(C3=C(c4c[nH]c5ccccc45)C(=O)NC3=O)c3ccccc3n2)CC1"
result = "0.09 °C"


Note to self: thermal shift delta Tm recorded for COc1cc(CCc2cc(NC(=O)c3ccc(N4CC(C)NC(C)C4)cc3)n[nH]2)cc(OC)c1 (stereo not drawn) was 6.65 °C

thermal shift delta Tm reported for this compound O=C(O[C@@H]1Cc2c(O)cc(O)cc2O[C@@H]1c1cc(O)c(O)c(O)c1)c1cc(O)c(O)c(O)c1 [(-)-Epigallocatechin Gallate] : 0.94 °C

Data point: `O=C1NC(=O)C(c2ccccc2[N+](=O)[O-])=C1Nc1ccc(O)c(Cl)c1` ; thermal shift delta Tm = 1.12 °C

thermal shift delta Tm in this record for CC1Oc2cc(cnc2N)-c2c(nn(C)c2C#N)CN(C)C(=O)c2ccc(F)cc21 (stereo not drawn) : 0.23 °C

Value of measured thermal shift delta Tm for the entry `FC(F)(F)c1ccc(/C=C/c2nc(COc3ccc(CCCCn4ccnn4)cc3)co2)cc1` : 0.05 °C

The compound `Cc1ccc(-n2nc(C(C)(C)C)cc2NC(=O)NCc2cc(F)ccc2Oc2ccc3c(cnn3CCO)c2)cc1` showed thermal shift delta Tm equal to 0.41 °C
